assay: Thermostability, temperature of aggregation (ProteoStat Thermal Shift); format: physicochemical; parameters: key: temperature in °C; details: pH 6.5
# Tagg per record follows
Lab note: jot down the number only; don't add units.

Solved entries:
SEQID-00511: protein of the 168 nutritive polypeptide library (protein, Arthrospira platensis C1, protein of the 168 nutritive polypeptide library) MVLFGFGKKKSLPKPEEALPGRDRVMSVPDRHYINGNPLKPPFPEGMEQAVFGLGCFWGAERKFWQQQGVFSTAVGYAGGYTKNPTYEEVCSGMTGHTEVVLVVFDPKVISYTDLLKLFWESHNPTQGMRQGNDTGTQYRSAIYTYSDEQQRLALASRDRYQQALSAASYGEITTEIAPAQEFYYAEAYHQQYLGKNPNGYCGLGGTGVGCPAMTETSV
45.5
SEQID-00622: protein of the 168 nutritive polypeptide library (protein, listed as Oryza sativa, source: /note="subsp. japonica", protein of the 168 nutritive polypeptide library) MASEGAVSPAFAYTVVYVKDVAKSAAFYSAAFGYTVRRLDQSHKWAELESGTTTIAFTPLHQRETDALTGAVQLPDSAGERGPVEICFDYADVDAAYRRAVDSGAVPVSPPEQKSWGQKVGYVRDIDGIIVRMGSHVRA
47
SEQID-00485: nutritive polypeptide naturally produced in Chickpea, recombinantly expressed in E. coli (protein, listed as Cicer arietinum) MTKTGYINAAFRSSRNNEAYLFINDKYVLLDYAPGTSNDKVLYGPSFVRDGYKSLAKTIFGTYGIDCSFDTEYNEAFIFYENFCARIDYAPHSDKDKIISGPKKIADMFPFFKGTVFENGIDAAFRSTKGKEVYLFKGDKYARIDYLTNRLVQNIKSISDGFPCLRGTIFEAGMDSAFASHKTNEAYLFKGEYYARINFTPGSTNDIMGGVKKTLDYWPSLRGIIPLE
36.5
SEQID-00502: protein of the 168 nutritive polypeptide library (protein, Glycine max, protein of the 168 nutritive polypeptide library) MASQSNTKSVHDFTVKDARGNNVNLADYKGKVLLIVNVASQCGLTNSNYTELNQLYEKYKGKGLEILAFPCNQFGAQEPGTNEEIVEFACTRFKAEFPIFDKVDVNGDNAAPLYKFLKSSKGGLFGDSIKWNFSKFLVDKDGNVVDRYAPTTSPLSIEKDIKKLLDA
78.5

Would you kindly look at the next entry?
Exercise: Given the entry SEQID-00100: nutritive polypeptide (protein, listed as Lactobacillus acidophilus) MSEEEIFNKIKDLIADNFEVDKDSITENTNFMNDLDADSIDLVEFILQLEDEFGAEIPDDEAEKIKTVGDAVSYIKSHQG , report its measured Tagg.
Key: 95
